# test-system: UniProt A8MUK1
# Sequence (A8MUK1 whole entry, looked up): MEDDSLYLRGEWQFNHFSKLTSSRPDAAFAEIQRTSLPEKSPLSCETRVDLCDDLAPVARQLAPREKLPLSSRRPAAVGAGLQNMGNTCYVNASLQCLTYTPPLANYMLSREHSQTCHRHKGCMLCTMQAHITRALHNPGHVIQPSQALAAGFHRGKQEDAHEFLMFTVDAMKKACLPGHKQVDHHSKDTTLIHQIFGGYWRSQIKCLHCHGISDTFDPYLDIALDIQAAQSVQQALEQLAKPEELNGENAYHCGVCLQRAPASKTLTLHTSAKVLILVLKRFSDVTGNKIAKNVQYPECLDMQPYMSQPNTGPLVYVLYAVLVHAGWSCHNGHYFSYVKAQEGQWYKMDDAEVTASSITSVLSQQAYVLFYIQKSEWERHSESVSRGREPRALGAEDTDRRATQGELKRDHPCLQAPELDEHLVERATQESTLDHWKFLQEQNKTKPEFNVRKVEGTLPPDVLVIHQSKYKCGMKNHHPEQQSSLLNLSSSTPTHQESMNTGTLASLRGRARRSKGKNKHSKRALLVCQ
# experiment-description: ubiquitin-specific protease 17 DUB inhibitors, concentration-effect assay, cell-free, verification of initial screening actives (AID 1645864)
# protocol-conditions: purified USP17, ubiquitin-rhodamine cleavage fluorescence, 3 h
Calls of active or inactive are those of the source.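 How the source made its calls: active means maximal inhibition of USP17 at or above 30% in the confirmation dose-response, a value not among the printed readouts; inactive means the rest.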
# output must be one of 1 for active, 0 for inactive

Cc1ccc(-n2c(=O)c3ccccc3n(Cc3c(F)cccc3Cl)c2=O)cc1 ... 1
CC(OC(=O)c1c2c(nc3ccccc13)CCCCC2)C(=O)Nc1ccc2ccccc2c1 (stereo unspecified) ... 1
CS(=O)(=O)N1CCCN(c2nc3cc(Cl)ccc3n3cccc23)CC1 ... 0
COc1ccc(CC(=O)Nc2ccc3nc(N4CCOCC4)cc(C)c3c2)cc1 ... 1
O=C(/C=C/c1ccccc1)N1CCN(C2=NS(=O)(=O)c3ccccc32)CC1 ... 0
CCCCN1CC(C(=O)Nc2ccc(C(=O)Nc3ccc(Cl)cc3)cc2)CC1=O (stereo unspecified) ... 1
O=C(Cn1c(=O)nc(-c2ccccc2)c2ccccc21)NCc1ccc2c(c1)OCO2 ... 1
COc1ccc(-c2nc(SCC(=O)Nc3ccc(Cl)cc3F)n[nH]2)cc1 ... 1

Incoming: Please state the recorded outcome for this compound: COc1ccc(C2SCC(=O)Nc3c2c(=O)[nH]n3C2CCCCC2)cc1 (stereo unspecified)
Outgoing: 1

Incoming: Please state the recorded outcome for this compound: CCn1cnc2ccc(C(=O)NC3CC3)cc2c1=O
Outgoing: 0

Incoming: Please state the recorded outcome for this compound: O=C(Cn1cnc2ccccc21)Nc1ccc2c(c1)CCC2
Outgoing: 1

----------
# test-system: Ubiquitin carboxyl-terminal hydrolase 17-like protein 5 (Homo sapiens)
# experiment-description: ubiquitin-specific protease 17 DUB inhibitors, concentration-effect assay, cell-free, verification of initial screening actives (AID 1645864)
# protocol-conditions: purified USP17, ubiquitin-rhodamine cleavage fluorescence, 3 h
The source made the active and inactive calls.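 Rule for the calls: active = maximal inhibition of USP17 at or above 30% in the confirmation dose-response, a value not among the printed readouts; inactive = the rest.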
# output must be one of active, inactive

Below, 4 compounds whose answers are already recorded.
O=C(O)CCCCCN1C(=O)CC(c2ccc(Cl)cc2)CC1=O ... active
Cc1ccc2c(c1)N(C)C(=O)c1cc(NC(=O)c3ccc(F)cc3)ccc1O2 ... active
COc1ccc(NC(=O)c2ccc(-n3nnnc3SC)cc2)cc1Cl ... inactive
c1ccc(Cc2nn3c(-c4cccnc4)nnc3c3ccccc23)cc1 ... active

Incoming: Please state the recorded outcome for this compound: Cc1cc2nc(Oc3cccc(Cl)c3)c3ccccc3n2n1
Outgoing: active

Incoming: Please state the recorded outcome for this compound: Cc1cc(C)n(-c2cccc(C(=O)Nc3ccc4c(c3)CCN4S(C)(=O)=O)c2)n1
Outgoing: inactive

----------
# test-system: Ubiquitin carboxyl-terminal hydrolase 17-like protein 5 (Homo sapiens)
# experiment-description: ubiquitin-specific protease 17 DUB inhibitors, concentration-effect assay, cell-free, verification of initial screening actives (AID 1645864);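 active = maximal inhibition of USP17 at or above 30% in the confirmation dose-response, a value not among the printed readouts; inactive = the rest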
# protocol-conditions: purified USP17, ubiquitin-rhodamine cleavage fluorescence, 3 h
# output must be one of active, inactive

Below, 4 compounds whose answers are already recorded.
COc1cccc(N2C(=O)N(CC(=O)NCc3ccc(Cl)cc3)c3ccccc3S2(=O)=O)c1 ... active
COc1cccc2sc(N3CCN(c4nc5ccccc5s4)CC3)nc12 ... active
O=c1oc2ccccc2c2nn(-c3ccccn3)cc12 ... active
CCC1=C(c2ccc(C)cc2)S(=O)(=O)NC1=NCC(=O)NCc1ccccc1F ... active

With those in mind, consider the next compound.
Incoming: Please state the recorded outcome for this compound: CCC[C@H]1O[C@@H]2CC(=O)O[C@@H]2C2=C1C(=O)c1c(O)cccc1C2=O
Outgoing: active
